read-out: Lipase C (LIPC), LIPC (gene 3990); assay: LTEA_HepaRG_LIPC: Life Technologies and Expression Analysis (LTEA) Assay for Lipase C (LIPC) using HepaRG (AID 2283514); conditions: mRNA level, 48 h; actives raise or lower the signal
Calls of active or inactive are those of the source. Rule for the calls: active = hit-call score of the fitted dose curve at least 0.9, where 1 is the maximum; inactive = score below 0.9.
Possible outcomes: t (active), f (inactive)

molecule: Cc1cn([C@H]2C=C[C@@H](CO)O2)c(=O)[nH]c1=O
label-class: f
--
molecule: OCC(CO)n1cnc(-c2ccc(F)cc2)c1-c1ccnc(Oc2ccccc2)n1
label-class: f
--
molecule: CS(=O)(=O)c1ccc([C@@H](C[C@H]2CCC(=O)C2)C(=O)Nc2cnccn2)cc1Cl
label-class: t
--
molecule: CC(N)=O
label-class: f
--
molecule: CCCCCCCC(=O)OC
label-class: f
--
molecule: OCC(O)CO
label-class: f
--
molecule: c1ccc2occc2c1
label-class: f
--
molecule: S=c1[nH]c2ccccc2s1
label-class: f
--
molecule: CCCCCCCCCCCCCCOS(=O)(=O)O
label-class: f
--
molecule: Nc1nc(Cl)nc2c1ncn2[C@H]1C[C@H](O)[C@@H](CO)O1
label-class: t
--
molecule: O=[Si]=O
label-class: f
--
molecule: CCCCCCCCCCCCCCCCO
label-class: f
--
molecule: Cc1cc(SC2=C(O)C[C@@](CCc3ccc(N)cc3)(C(C)C)OC2=O)c(C(C)(C)C)cc1CO
label-class: f
--
molecule: CCCCCCC(CCCCCCCCCCC(=O)OCC(COC(C)=O)OC(C)=O)OC(C)=O (stereo not given)
label-class: f
--
molecule: O=C(N[C@@H](c1ccccc1)[C@@H]1CCCCN1)c1cccc(C(F)(F)F)c1Cl
label-class: f
--
molecule: CO[C@@H]1COCC[C@@H]1N[C@@H]1CC[C@@](C(=O)N2CCc3ncc(C(F)(F)F)cc3C2)(C(C)C)C1
label-class: f
--
molecule: COc1ccc(OC(F)(F)F)cc1CN[C@H]1CCCN[C@H]1c1ccccc1
label-class: f
--
molecule: COc1ccc(C(=O)Nc2nc3ccccc3c(NCc3ccccc3)c2C#N)cc1
label-class: t
--
molecule: CC(C)COC(=O)CCCCC(=O)OCC(C)C
label-class: f
--
molecule: O=C(Oc1ccccc1)c1cccc(C(=O)Oc2ccccc2)c1
label-class: f
--
molecule: CC(C)c1cccc(C(C)C)c1
label-class: f
--
molecule: O=C1O[C@H]([C@H](O)CO)C(O)=C1O
label-class: f
--
molecule: CCCCOC(=O)CCCCC(=O)OCCCC
label-class: f
--
molecule: CC(=O)S[C@H](C(=O)N[C@H]1Cc2ccccc2[C@H]2CCC[C@@H](C(=O)O)N2C1=O)C(C)C
label-class: f
--
molecule: CC(=O)CC(c1ccccc1)c1c(O)c2ccccc2oc1=O (stereo not given)
label-class: f

###

read-out: TIMP metallopeptidase inhibitor 2 (TIMP2), TIMP2 (gene 7077); assay: BSK_KF3CT_TIMP2: BioMAP Diversity Plus: KF3CT Assay for TIMP metallopeptidase inhibitor 2 (TIMP2) Biomarker Activity (AID 2283071); conditions: primary human keratinocytes with fibroblasts; actives raise or lower the signal
The source made the active and inactive calls. How the source made its calls: active means hit-call score of the fitted dose curve at least 0.9, where 1 is the maximum; inactive means score below 0.9.
Possible outcomes: TRUE for active, FALSE for inactive

compound: CCCCCCC(CCCCCCCCCCC(=O)OCC(COC(C)=O)OC(C)=O)OC(C)=O (stereo not given)
label-class: FALSE

compound: c1ccc2occc2c1
label-class: FALSE

compound: CN(C)CCCN1c2ccccc2Sc2ccc(Cl)cc21
label-class: FALSE

compound: N[C@@H](Cc1c[nH]c2ccccc12)C(=O)O
label-class: FALSE

compound: Cc1ccc(-c2cc(C(F)(F)F)nn2-c2ccc(S(N)(=O)=O)cc2)cc1
label-class: FALSE

compound: OCC(CO)n1cnc(-c2ccc(F)cc2)c1-c1ccnc(Oc2ccccc2)n1
label-class: FALSE

compound: CCCCC(CC)CO (stereo not given)
label-class: FALSE

compound: CCCCCCCCCCCCCCOS(=O)(=O)O
label-class: TRUE

compound: CCCCCCCC(=O)OC
label-class: FALSE

compound: CC(=O)[C@@]1(O)CC[C@H]2[C@@H]3CCC4=CC(=O)CC[C@]4(C)[C@H]3CC[C@@]21C
label-class: FALSE

compound: CCCCCCCCCC[N+](C)(C)[O-]
label-class: TRUE

compound: O=Cc1ccccc1C=O
label-class: FALSE

compound: CC(=O)O[C@]1(C(C)=O)CC[C@H]2[C@@H]3C=C(Cl)C4=CC(=O)[C@@H]5C[C@@H]5[C@]4(C)[C@H]3CC[C@@]21C
label-class: FALSE

compound: CS(=O)(=O)c1ccc([C@@H](C[C@H]2CCC(=O)C2)C(=O)Nc2cnccn2)cc1Cl
label-class: FALSE

compound: O=C(O)c1[nH]n(-c2ccc(S(=O)(=O)O)cc2)c(=O)c1N=Nc1ccc(S(=O)(=O)O)cc1
label-class: FALSE

compound: CCCCC(CC)COP(=O)(OCC(CC)CCCC)OCC(CC)CCCC (stereo not given)
label-class: FALSE

compound: CN(C)C(=O)NC1(c2ccccc2)CCN(CCC[C@]2(c3ccc(Cl)c(Cl)c3)CCCN(C(=O)c3ccccc3)C2)CC1
label-class: FALSE

compound: CCOCCOCCO
label-class: FALSE

compound: CCc1nc(N)nc(N)c1-c1ccc(Cl)cc1
label-class: FALSE

compound: CC(COCC(C)OC(=O)c1ccccc1)OC(=O)c1ccccc1 (stereo not given)
label-class: FALSE

compound: NC1CCCCC1
label-class: FALSE

compound: O=C(O)CN(CC(=O)O)CC(=O)O
label-class: FALSE

compound: Oc1ccccc1O
label-class: FALSE

compound: Cc1cc(Cc2ccc(N)c(C)c2)ccc1N
label-class: FALSE

compound: O=C(O)CC(O)(CC(=O)O)C(=O)O
label-class: FALSE
